Exercise: for every item that follows, state its recorded IC50.
TARGET DESC: PI3K δ (Homo sapiens, UniProt O00329)
Construct: purchased Upstate
Sequence (O00329 whole entry): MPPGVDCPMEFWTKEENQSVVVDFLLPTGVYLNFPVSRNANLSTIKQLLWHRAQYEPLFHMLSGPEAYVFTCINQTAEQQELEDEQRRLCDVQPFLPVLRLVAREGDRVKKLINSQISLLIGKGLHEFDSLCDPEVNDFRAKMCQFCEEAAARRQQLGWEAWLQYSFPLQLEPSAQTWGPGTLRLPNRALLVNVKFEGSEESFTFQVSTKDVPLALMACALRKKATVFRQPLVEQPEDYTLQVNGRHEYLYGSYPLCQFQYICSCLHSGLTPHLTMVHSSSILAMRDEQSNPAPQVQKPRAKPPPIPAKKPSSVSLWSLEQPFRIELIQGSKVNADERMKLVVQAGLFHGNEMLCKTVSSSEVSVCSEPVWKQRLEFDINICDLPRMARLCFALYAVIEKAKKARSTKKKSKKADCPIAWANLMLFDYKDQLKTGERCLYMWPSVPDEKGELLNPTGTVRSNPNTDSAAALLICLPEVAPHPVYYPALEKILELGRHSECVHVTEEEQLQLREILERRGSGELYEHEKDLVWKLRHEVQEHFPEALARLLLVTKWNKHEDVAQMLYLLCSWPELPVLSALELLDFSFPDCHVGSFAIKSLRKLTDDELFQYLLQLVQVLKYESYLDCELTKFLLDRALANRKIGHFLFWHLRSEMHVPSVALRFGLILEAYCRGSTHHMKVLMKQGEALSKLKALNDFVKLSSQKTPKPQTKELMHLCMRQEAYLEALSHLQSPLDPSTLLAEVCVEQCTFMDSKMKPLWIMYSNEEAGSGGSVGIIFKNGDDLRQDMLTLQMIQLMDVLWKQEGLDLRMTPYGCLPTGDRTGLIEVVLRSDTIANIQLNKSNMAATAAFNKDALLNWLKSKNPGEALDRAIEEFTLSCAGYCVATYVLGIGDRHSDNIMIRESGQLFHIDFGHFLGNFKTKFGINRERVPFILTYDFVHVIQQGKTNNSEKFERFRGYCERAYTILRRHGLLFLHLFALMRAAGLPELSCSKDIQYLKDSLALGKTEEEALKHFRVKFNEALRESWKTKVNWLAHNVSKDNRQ
Sequence (P27986 whole entry partner): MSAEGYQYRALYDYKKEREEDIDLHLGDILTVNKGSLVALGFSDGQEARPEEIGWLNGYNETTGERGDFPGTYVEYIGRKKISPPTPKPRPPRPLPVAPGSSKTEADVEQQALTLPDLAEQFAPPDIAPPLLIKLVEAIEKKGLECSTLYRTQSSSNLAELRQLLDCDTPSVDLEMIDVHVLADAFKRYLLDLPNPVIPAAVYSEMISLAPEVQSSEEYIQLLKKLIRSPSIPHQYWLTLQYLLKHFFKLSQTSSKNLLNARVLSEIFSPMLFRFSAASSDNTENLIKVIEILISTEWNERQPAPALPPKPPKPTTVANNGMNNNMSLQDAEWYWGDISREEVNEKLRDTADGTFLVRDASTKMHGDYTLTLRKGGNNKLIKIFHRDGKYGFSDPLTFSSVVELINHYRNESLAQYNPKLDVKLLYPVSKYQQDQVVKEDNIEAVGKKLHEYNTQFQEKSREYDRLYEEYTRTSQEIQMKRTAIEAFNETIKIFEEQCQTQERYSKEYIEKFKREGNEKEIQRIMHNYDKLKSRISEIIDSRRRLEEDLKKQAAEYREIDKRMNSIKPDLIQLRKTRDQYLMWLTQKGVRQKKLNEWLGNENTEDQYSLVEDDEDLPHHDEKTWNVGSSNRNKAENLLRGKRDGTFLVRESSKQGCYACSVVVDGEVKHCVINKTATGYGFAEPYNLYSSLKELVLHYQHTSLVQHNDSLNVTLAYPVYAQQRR
METHOD: PI 3-Kinase HTRF inhibition assay, PI3K δ
Format: biochemical
SETUP CONDITIONS: in vitro; read-out: PI3K δ IC50

## Task So what does the record say about IC50 for Nc1nc2cc(-c3ccc4ncc(N5CCC(O)CC5)nc4n3)ccc2o1 [Compound 45] ?
## Result > 10 µM

## Task So what does the record say about IC50 for CC(C)(N)C(=O)N1CCN(c2ccc3ncc(-c4ccc5oc(N)nc5c4)cc3n2)CC1 [Compound 82] ?
## Result > 10 µM

## Task So what does the record say about IC50 for C[C@@H]1CN(C2CN(c3cnc4ccc(-c5ccc6oc(N)nc6c5)nc4n3)C2)CCN1 [Compound 12] ?
## Result < 10 µM

###

TARGET DESC: PI3K β (Homo sapiens, UniProt P42338)
Sequence (P42338 whole entry): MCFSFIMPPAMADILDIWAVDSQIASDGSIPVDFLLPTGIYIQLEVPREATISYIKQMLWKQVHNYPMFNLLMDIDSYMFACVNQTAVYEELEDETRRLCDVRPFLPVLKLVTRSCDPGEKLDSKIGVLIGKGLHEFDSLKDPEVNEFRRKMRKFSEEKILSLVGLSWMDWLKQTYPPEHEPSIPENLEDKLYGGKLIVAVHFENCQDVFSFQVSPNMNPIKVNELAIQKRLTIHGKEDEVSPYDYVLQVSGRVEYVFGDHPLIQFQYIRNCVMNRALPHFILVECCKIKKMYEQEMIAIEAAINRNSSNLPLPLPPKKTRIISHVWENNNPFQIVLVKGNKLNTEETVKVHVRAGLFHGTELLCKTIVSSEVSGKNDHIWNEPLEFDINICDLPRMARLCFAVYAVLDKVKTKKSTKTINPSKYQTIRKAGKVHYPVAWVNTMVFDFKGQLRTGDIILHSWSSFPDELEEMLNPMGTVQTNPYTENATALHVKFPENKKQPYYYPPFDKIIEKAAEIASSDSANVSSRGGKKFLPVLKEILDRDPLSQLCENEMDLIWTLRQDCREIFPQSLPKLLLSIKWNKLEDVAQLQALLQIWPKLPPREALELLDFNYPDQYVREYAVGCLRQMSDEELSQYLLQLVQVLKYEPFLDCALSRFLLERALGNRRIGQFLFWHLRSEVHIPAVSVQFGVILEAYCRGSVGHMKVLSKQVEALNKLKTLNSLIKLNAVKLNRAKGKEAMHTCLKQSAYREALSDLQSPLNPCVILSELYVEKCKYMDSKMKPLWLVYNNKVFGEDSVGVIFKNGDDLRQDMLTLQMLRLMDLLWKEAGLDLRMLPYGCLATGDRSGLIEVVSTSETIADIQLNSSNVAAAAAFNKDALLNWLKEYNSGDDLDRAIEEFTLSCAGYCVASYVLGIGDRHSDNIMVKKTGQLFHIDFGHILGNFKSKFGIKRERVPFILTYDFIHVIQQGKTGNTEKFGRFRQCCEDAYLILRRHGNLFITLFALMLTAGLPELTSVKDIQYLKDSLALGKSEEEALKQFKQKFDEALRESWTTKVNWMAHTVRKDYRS
Sequence (P27986 whole entry partner): as the sequence (P27986 whole entry partner) above
Exercise: for every item that follows, state its recorded IC50.

## Task So what does the record say about IC50 for "CCOC(=O)N1CC=C(c2cnc3ccc(-c4ccc5oc(N)nc5c4)nc3n2)CC1" ?
## Result < 10 µM

## Task So what does the record say about IC50 for "CN1CCN(C2CN(c3cnc4ccc(-c5ccc6oc(N)nc6c5)nc4n3)C2)CC1" ?
## Result < 10 µM

## Task So what does the record say about IC50 for "Cc1nccn1C1CN(c2cnc3ccc(-c4ccc5oc(N)nc5c4)nc3c2)C1" ?
## Result < 10 µM

## Task So what does the record say about IC50 for CN1CC2CN(c3cnc4ccc(-c5ccc6oc(N)nc6c5)nc4n3)CC2C1 (stereo not shown) ?
## Result < 1 µM

###

Exercise: for every item that follows, state its recorded pIC50.
TARGET DESC: PI3K β (Homo sapiens, UniProt P42338)
pIC50: −log10 of the molar value.

## Task So what does the record say about pIC50 for "Nc1nc2cc(-c3ccc4ncc(N5CC(N6CCN(CC7CC7)CC6)C5)nc4n3)ccc2o1" ?
## Result > 5.00

## Task So what does the record say about pIC50 for "Nc1nc2cc(-c3ccc4ncc(N5CCC(F)(F)CC5)nc4n3)ccc2o1" ?
## Result < 5.00

## Task So what does the record say about pIC50 for "Nc1nc2cc(-c3ccc4ncc(N5CCOCC5)cc4n3)ccc2o1" ?
## Result > 6.00

## Task So what does the record say about pIC50 for "C[C@@H]1CN(c2cnc3ccc(-c4ccc5oc(N)nc5c4)nc3c2)CCN1" ?
## Result > 6.00

## Task So what does the record say about pIC50 for "Nc1nc2cc(-c3ccc4ncc(N5CC(N6CCN(CC7CC7)CC6)C5)cc4n3)ccc2o1" ?
## Result > 5.00

## Task So what does the record say about pIC50 for "CC(C)N1CCN(C2CN(c3cnc4ccc(-c5ccc6oc(N)nc6c5)nc4c3)C2)CC1" ?
## Result > 6.00

## Task So what does the record say about pIC50 for "Nc1nc2cc(-c3cnc4ccc(N5C6CCC5COC6)nc4c3)ccc2o1" ?
## Result < 5.00

## Task So what does the record say about pIC50 for "C[C@H]1CN(c2cnc3ccc(-c4ccc5oc(N)nc5c4)nc3c2)CCN1" ?
## Result > 7.00

###

TARGET DESC: PI3K δ (Homo sapiens)
Construct: purchased Upstate
METHOD: PI 3-Kinase HTRF inhibition assay, PI3K δ
Type: biochemical
SETUP CONDITIONS: in vitro; read-out: PI3K δ IC50
pIC50: −log10 of the molar value.
REPORTED ENDPOINT: pIC50

## Task So what does the record say about pIC50 for Nc1nc2cc(-c3ccc4ncc(N5C6CCC5COC6)nc4n3)ccc2o1 [Compound 19] ?
## Result < 5.00

## Task So what does the record say about pIC50 for C[C@@H]1CN(C2CN(c3cnc4ccc(-c5ccc6oc(N)nc6c5)nc4c3)C2)CCN1 [Compound 56] ?
## Result > 6.00

## Task So what does the record say about pIC50 for CS(=O)(=O)N1CCN(C2CN(c3cnc4ccc(-c5ccc6oc(N)nc6c5)nc4n3)C2)CC1 [Compound 8] ?
## Result > 5.00

## Task So what does the record say about pIC50 for CN1CCN(c2cnc3ccc(-c4ccc5oc(N)nc5c4)nc3n2)CC1 [Compound 4] ?
## Result > 5.00
